# Read-out: Interleukin 17A (IL17A), IL17A (gene 3605)
# MEASUREMENT DESCRIPTION: BSK_BT_xIL17A: BioMAP Diversity Plus: BT Assay for Interleukin 17A (IL17A) Biomarker Activity (AID 2284229)
# SETUP CONDITIONS: primary human B cells with PBMC
The source made the active and inactive calls. The calls were made as follows: active = hit-call score of the fitted dose curve at least 0.9, where 1 is the maximum; inactive = score below 0.9.
Your answer must be one of the following: TRUE (active), FALSE (inactive)

How was CCOC(=O)CC(=O)CCl classified in this test?
TRUE

Each compound tested received a call. Report the one for [Cl][Sn]([c]1ccccc1)([c]1ccccc1)[c]1ccccc1 .
TRUE

For this compound, state the assay outcome: CCN(CC)C(=O)C(Cl)=C(C)OP(=O)(OC)OC
FALSE

# outcome recorded in this test, key = Nc1c(Oc2ccccc2)cc(O)c2c1C(=O)c1ccccc1C2=O
FALSE

GET /call?item= Cc1ccccc1OP(=O)(Oc1ccccc1)Oc1ccccc1 returns the recorded outcome of this test.
FALSE
